The measured values listed here are drawn from ChEMBL document CHEMBL1155778.

Experiment: Half life in human plasma
Type: ADME, organism-based
test-readout: half-life (h)
Answers are plain numbers, in h.

Need half-life, item Cc1ccc(-c2cc(C(F)(F)F)nn2-c2ccc(S(N)(=O)=O)cc2)cc1 [CELECOXIB] 11.2

====

Test: Oral bioavailability in rat
Format: ADME, organism-based
Details: in vivo
// Criterion not met strictly below 80% in bioavailability; Criterion met otherwise

Solved entries:
[[record]]
compound = "C[C@H](NC(=O)C(C)(C)Oc1ccccn1)[C@@H](Cc1ccc(Cl)cc1)c1ccccc1"
class = "Criterion not met"

[[record]]
compound = "CC(=O)c1cc(F)cc2c3c(n(Cc4ccc(Cl)cc4)c12)C(CC(=O)O)CC3 (stereo unspecified)"
class = "Criterion not met"

[[record]]
compound = "C[C@H](NC(=O)C(C)(C)Oc1ccc(C(F)(F)F)cn1)[C@@H](Cc1ccc(Cl)cc1)c1ccccc1"
class = "Criterion met"

[[record]]
compound = "C[C@H](NC(=O)C(C)(C)Oc1ccccc1)[C@@H](Cc1ccc(Cl)cc1)c1ccccc1"
class = "Criterion not met"


# evaluate next
# check: bioavailability of CC(=O)c1cc(S(C)(=O)=O)cc2c3c(n(Cc4ccc(Cl)cc4)c12)[C@@H](CC(=O)O)CC3 is greater than or equal to 80% Criterion met
